Here's what we have: IC50 numbers for dephosphorylated PDK1 (Homo sapiens (Human)).

{"item smiles": "O=C(Nc1cccc(Cc2c[nH]c3ncccc23)c1)c1cccn(Cc2ccc(F)c(F)c2)c1=O", "IC50": "< 500 nM"}
{"item smiles": "COC(=O)c1cc(-c2cccc(CNC(=O)c3cccn(Cc4ccc(F)c(F)c4)c3=O)c2)c[nH]1", "IC50": "< 500 nM"}
{"item smiles": "O=C(NCc1nc(-c2c[nH]c3ncccc23)cs1)c1cc(Cl)cn(Cc2ccc(Cl)cc2)c1=O", "IC50": "< 500 nM"}
{"item smiles": "O=C(NCc1cnc(-c2c[nH]c3ncccc23)s1)c1cccn(Cc2ccc(F)c(F)c2)c1=O", "IC50": "< 500 nM"}
{"item smiles": "CNC(=O)C[C@@H](NC(=O)c1cccn(Cc2ccc(F)c(F)c2)c1=O)c1ncc(-c2c[nH]c3ncccc23)s1", "IC50": "< 500 nM"}
{"item smiles": "CNc1nc(-c2ccc(CNC(=O)c3cccn(Cc4ccc(F)c(F)c4)c3=O)s2)cn2ccnc12", "IC50": "< 500 nM"}
{"item smiles": "Nc1ccc(-c2cccc(CNC(=O)c3cccn(Cc4ccc(F)c(F)c4)c3=O)c2)cn1", "IC50": "500 to 10000 nM"}
{"item smiles": "O=C(NCc1ccc(-c2c[nH]c3ncccc23)s1)c1cccn(Cc2ccc(F)c(F)c2)c1=O", "IC50": "< 500 nM"}
{"item smiles": "O=C(NC1(c2nnc(-c3c[nH]c4ncccc34)o2)CC1)c1cccn(Cc2ccc(F)c(F)c2)c1=O", "IC50": "< 500 nM"}
{"item smiles": "O=C(NCCOc1cc2[nH]c(=O)[nH]c2cn1)c1cccn(Cc2ccc(F)c(F)c2)c1=O", "IC50": "< 500 nM"}
{"item smiles": "O=C(NCc1noc(-c2c[nH]c3ncccc23)n1)c1cccn(Cc2ccc(Cl)c(F)c2)c1=O", "IC50": "< 500 nM"}
{"item smiles": "O=C(NCc1cccc(-c2ccc3nsnc3c2)c1)c1cccn(Cc2ccc(F)c(F)c2)c1=O", "IC50": "500 to 10000 nM"}
{"item smiles": "O=C(NCc1cccc(-c2cc(=O)[nH][nH]2)c1)c1cccn(Cc2ccc(F)c(F)c2)c1=O", "IC50": "500 to 10000 nM"}
{"item smiles": "NC(=O)C[C@@H](NC(=O)c1cccn(Cc2ccc(F)c(F)c2)c1=O)c1ncc(-c2c[nH]c3ncccc23)o1", "IC50": "< 500 nM"}
{"item smiles": "O=C(O)C[C@@H](NC(=O)c1cccn(Cc2ccc(F)c(F)c2)c1=O)c1nnc(-c2c[nH]c3ncccc23)o1", "IC50": "< 500 nM"}

---

Tested on: phospho-akt (Thr308)
procedure text: phospho-akt (Thr308) MSD ELISA in PC-3 cells
Format: cell-based
stated conditions: Homo sapiens, PC-3, 2 h, PC-3 cells, 2 hours, no serum; read-out: Inhibition of P308 Akt in cells using MSD EC50
parameter: EC50

{"molecule": "O=C(NCc1cccc(-c2c[nH]c3ncc(-c4ccoc4)cc23)c1)c1cccn(Cc2ccc(F)c(F)c2)c1=O", "parameter": "EC50", "result": "< 1000 nM"}
{"molecule": "O=C(Cc1cccc(C2CNc3ncccc32)c1)Nc1cccn(Cc2ccc(F)c(F)c2)c1=O (stereo not drawn)", "parameter": "EC50", "result": "1000 to 5000 nM"}
{"molecule": "O=C(NCc1cccc(-c2c[nH]c3ncc(F)cc23)c1)c1cccn(Cc2ccc(F)c(F)c2)c1=O", "parameter": "EC50", "result": "1000 to 5000 nM"}
